Values compiled from ChEMBL document CHEMBL6121038.

Test system: RAW264.7
Experiment: Cytotoxicity against mouse RAW264.7 cells assessed as cell viability at 40 uM measured after 24 hrs by MTT assay
Assay type: toxicity, cell-based
Conditions: raw264.7, 24 h
Assay endpoint: Activity

CCOC(=O)c1noc2c1C[C@@]1(C)[C@@H](CC[C@]3(C)[C@@H]1CC=C1[C@@H]4CC(C)(C)CC[C@]4(C(=O)OCc4ccccc4)CC[C@]13C)[C@]2(C)COC(=O)CCC(=O)N[C@@H](CC(=O)OC)C(=O)OC
Non-toxic
CCOC(=O)c1noc2c1C[C@@]1(C)[C@@H](CC[C@]3(C)[C@@H]1CC=C1[C@@H]4CC(C)(C)CC[C@]4(C(=O)OCc4ccccc4)CC[C@]13C)[C@]2(C)COC(=O)CCC(=O)N[C@@H](CCC(=O)OC)C(=O)OC
Non-toxic
CCOC(=O)c1noc2c1C[C@@]1(C)[C@@H](CC[C@]3(C)[C@@H]1CC=C1[C@@H]4CC(C)(C)CC[C@]4(C(=O)OCc4ccccc4)CC[C@]13C)[C@]2(C)COC(=O)CCC(=O)N[C@@H](Cc1ccccc1)C(=O)OC
Non-toxic

* * *

Task for the reader: assign each of the following compounds its reported AUC(0-t) at 24 h.
Assay: AUC (0 to t) in BALB/c mouse at 10 mg/kg, po measured upto 24 hrs by LC/MS-MS analysis
Format: ADME, organism-based
Conditions: in vivo
Numbers only, in ng·h/mL.

Consider the reported AUC(0-t) at 24 h for these compounds:
CC1(C)CC[C@]2(C(=O)OCc3ccccc3)CC[C@]3(C)C(=CC[C@@H]4[C@@]5(C)Cc6c(C(=O)O)noc6[C@@](C)(COC(=O)CCC(=O)N6CCOCC6)[C@@H]5CC[C@]43C)[C@@H]2C1
1290
CCOC(=O)c1noc2c1C[C@@]1(C)[C@@H](CC[C@]3(C)[C@@H]1CC=C1[C@@H]4CC(C)(C)CC[C@]4(C(=O)OCc4ccccc4)CC[C@]13C)[C@]2(C)CO
22700
CCOC(=O)c1noc2c1C[C@@]1(C)[C@@H](CC[C@]3(C)[C@@H]1CC=C1[C@@H]4CC(C)(C)CC[C@]4(C(=O)OCc4ccccc4)CC[C@]13C)[C@]2(C)COC(=O)CCC(=O)N1CCOCC1
9620

Now for the compound whose AUC(0-t) at 24 h we want.
Q: Reported AUC(0-t) at 24 h for CC1(C)CC[C@]2(C(=O)OCc3ccccc3)CC[C@]3(C)C(=CC[C@@H]4[C@@]5(C)Cc6c(C(=O)O)noc6[C@@](C)(CO)[C@@H]5CC[C@]43C)[C@@H]2C1 : what is it?
Ans: 2580

* * *

Assay: Cmax in BALB/c mouse at 10 mg/kg, po measured upto 24 hrs by LC/MS-MS analysis
Format: ADME, organism-based
Conditions: in vivo
Assay endpoint: Cmax
Write your answer as a measured quantity: the number, then the unit.

Consider the reported Cmax for these molecules:
CCOC(=O)c1noc2c1C[C@@]1(C)[C@@H](CC[C@]3(C)[C@@H]1CC=C1[C@@H]4CC(C)(C)CC[C@]4(C(=O)OCc4ccccc4)CC[C@]13C)[C@]2(C)COC(=O)CCC(=O)N1CCOCC1
2760 ng/mL
CC1(C)CC[C@]2(C(=O)OCc3ccccc3)CC[C@]3(C)C(=CC[C@@H]4[C@@]5(C)Cc6c(C(=O)O)noc6[C@@](C)(COC(=O)CCC(=O)N6CCOCC6)[C@@H]5CC[C@]43C)[C@@H]2C1
209 ng/mL
CC1(C)CC[C@]2(C(=O)OCc3ccccc3)CC[C@]3(C)C(=CC[C@@H]4[C@@]5(C)Cc6c(C(=O)O)noc6[C@@](C)(CO)[C@@H]5CC[C@]43C)[C@@H]2C1
285 ng/mL

Now for the molecule whose Cmax we want.
Q: Reported Cmax for CCOC(=O)c1noc2c1C[C@@]1(C)[C@@H](CC[C@]3(C)[C@@H]1CC=C1[C@@H]4CC(C)(C)CC[C@]4(C(=O)OCc4ccccc4)CC[C@]13C)[C@]2(C)CO : what is it?
Ans: 3930 ng/mL
